The origin of these recorded values is paper PMC10063446.

# TESTED ON: recombinant RBD protein of wild-type SARS-CoV-2 (ELISA antigen) (SARS-CoV-2 wild-type, UniProt P0DTC2)
ENDPOINT NAME: binding result

P5S-3D10 (antibody, V domains shown) VH: EVQLVESGGDLVQPGRSLRLSCAASGFTFSLFAMSWVRQAPGKGLEWVSTISGRGDSSYYADSVKGRFTISRDNSKNTLYLQITGLRAEDTAVYYCAKGVDGDYGNWFDPWGQGALVTVSS VL: SYVLTQPPSVSVAPGKTARITCGGNNIGSKSVHWYQQKPGQAPVLVIYYDSDRPSGIPERISGSNSGNTATLTISRVEAGDEADYYCQVWHSSSVIFGGGTKLTVL; binds
P2-1G9 (antibody, V domains shown) VH: EVQLVESGGGLVQPGGSLRLSCAASGFTFSTYWMSWVRQAPGKGLEWVANIKQDGSDKYYVDSVKGRFTISRDNAKNSLYLQMNSLRVEDTAVYYCARDLGILWFGELPNFDPWGQGTLVTVSS VL: DIQMTQSPSSLSASVGDRVTITCRASQGISNSLAWYQQKPGKAPKLLLYAASTLESGVPSRFSGSGSGTDYTLTISSLQPEDFATYYCQQYYSPPPRTFGQGTKVEIK; binds
P5S-2G8 (antibody, V domains shown) VH: QMQLVQSGAEVKKTGSSVKVSCKASGSTFTHRYLHWVRQAPGQALEWMGWITPFNGDTNYAQKFQDRVTITRDGSMSTVYMDLSSLRSEDTAMYYCAAGARWGDSYYYYGMDVWGQGTAVTVSS VL: QSALTQPPSASGSPGQSVTISCTGTSSDVGGYNYVSWYQQHPDKAPKLMIYEVSKRPSGVPDRFSGSKSGNTASLTVSGLQAEDEADYYCSSYAGNNNLVFGTGTKVTVL; binds
